Measured IC50 values are reported for all entries that follow.
tested on: Plasmodium falciparum strain NF54; test: Growth inhibition of Plasmodium falciparum NF54 (chloroquine-sensitive) in vitro, [G-3H]-hypoxanthin incorporation; type: cell-based; settings: chloroquine-sensitive strain NF54, 72 h, read-out: IC50 for P. falciparum NF54
Just the number please, in µg/mL, no unit attached.

input: Returns the measured IC50 for the input compound. Input: Cl.Cl.FC(F)(F)c1cc(CN[C@H]2CC[C@@H](Nc3ccnc4cc(Cl)ccc34)CC2)cc(C(F)(F)F)c1
output: 0.0966

* * *

test system: Plasmodium berghei; assay: animal or person; type: in vivo, Plasmodium berghei (strain ANKA) in mice; conditions: Plasmodium berghei, sc; single subcutaneous dose of 10 mg/kg, mice, blood smears 48 h after treatment; read-out: Growth inhibition in % after sc administration (GI%, percentage reduction of the parasitemia)
inhibition in vivo at 10 mg/kg: recorded values
Please reply with the bare figure in % and do not write the unit itself.

Worked cases, answers included:
Compound | Display Unit | inhibition in vivo at 10 mg/kg
COc1ccc(CNC(C)(C)CNc2ccnc3cc(Cl)ccc23)c(O)c1.Cl.Cl [Example 29, dihydrochloride] | % | 99
COc1ccc(CN[C@H]2CC[C@H](Nc3ccnc4cc(Cl)ccc34)CC2)cc1OC.Cl.Cl [Example 110, dihydrochloride] | % | 99.6
CCN(CC)c1ccc(CNC(C)(C)CNc2ccnc3cc(Cl)ccc23)cc1.Cl.Cl.Cl [Example 46, trihydrochloride] | % | 99
Cl.Cl.N#Cc1ccc(CN[C@H]2CC[C@@H](Nc3ccnc4cc(Cl)ccc34)CC2)cc1 [Example 86, dihydrochloride] | % | 99.9
CN(C)c1ccc(CNC(C)(C)CNc2ccnc3cc(Cl)ccc23)cc1.Cl.Cl [Example 45, dihydrochloride] | % | 97
CCN(CC)c1ccc(CN[C@H]2CC[C@@H](Nc3ccnc4cc(Cl)ccc34)CC2)cc1.Cl.Cl.Cl [Example 85, trihydrochloride] | % | 100
CC(C)(CNc1ccnc2cc(Cl)ccc12)NCc1ccc(Cl)c(F)c1.Cl.Cl [Example 27, dihydrochloride] | % | 98
Cl.Cl.Clc1ccc(CN[C@H]2CCCC[C@@H]2Nc2ccnc3cc(Cl)ccc23)cc1 [Example 61, dihydrochloride] | % | 99.6

input: So what's the measured inhibition in vivo at 10 mg/kg for this one? Cl.Cl.O=[N+]([O-])c1cccc(Cl)c1CN[C@H]1CC[C@@H](Nc2ccnc3cc(Cl)ccc23)CC1 [Example 22, dihydrochloride]
output: 84

input: Record: COc1ccc(CCN[C@H]2CC[C@H](Nc3ccnc4cc(Cl)ccc34)CC2)cc1.Cl.Cl [Example 92, dihydrochloride]
output: 99.7

input: Then what about the compound CC(C)(CNc1ccnc2cc(Cl)ccc12)NCc1ccccn1.Cl.Cl.Cl [Example 56, trihydrochloride] ?
output: 97

input: Proceed to COc1ccc(CCN[C@H]2CC[C@H](Nc3ccnc4cc(Cl)ccc34)CC2)cc1OC.Cl.Cl [Example 88, dihydrochloride]
output: 99.9

input: Queued: CC(C)(CNc1ccnc2cc(Cl)ccc12)NCc1cc(Cl)cc(Cl)c1.Cl.Cl [Example 23, dihydrochloride]
output: 98

* * *

test system: Plasmodium falciparum strain NF54; assay: Growth inhibition of Plasmodium falciparum NF54 (chloroquine-sensitive) in vitro, [G-3H]-hypoxanthin incorporation; assay type: cell-based; details: chloroquine-sensitive strain NF54, 72 h, read-out: IC50 for P. falciparum NF54
Readout Type: IC50

Examples with answers:
Molecule | IC50
Cl.Cl.O=[N+]([O-])c1ccc(CCN[C@H]2CC[C@H](Nc3ccnc4cc(Cl)ccc34)CC2)cc1 [Example 93] | 3.4 ng/mL
CC(C)(CNc1ccnc2cc(Cl)ccc12)NCc1ccncc1 [Example 11] | 29.3 ng/mL
Cl.Cl.Clc1cc(Cl)cc(CN[C@H]2CC[C@@H](Nc3ccnc4cc(Cl)ccc34)CC2)c1 [Example 75] | 25 ng/mL
COc1ccc(CN[C@H]2CC[C@H](Nc3ccnc4cc(Cl)ccc34)CC2)cc1OC.Cl.Cl [Example 110] | 2.8 ng/mL
Cl.Cl.Clc1ccc2c(N[C@H]3CC[C@@H](NCc4ccccc4)CC3)ccnc2c1 [Example 70] | 3.8 ng/mL

input: Looking for the measured IC50 of CC(C)(CNc1ccnc2cc(Cl)ccc12)NCc1ccoc1.Cl.Cl [Example 55] , can you help?
output: 7.8 ng/mL

input: Do the same for CC(C)(CNc1ccnc2cc(Cl)ccc12)NCc1cccc(C(F)(F)F)c1 [Example 8] please
output: 16.1 ng/mL

input: # repeat for Cl.Cl.Clc1cccc(CN[C@H]2CC[C@H](Nc3ccnc4cc(Cl)ccc34)CC2)c1 [Example 107]
output: 1.4 ng/mL
